Molecular target: Neutrophil elastase (Homo sapiens)
Sequence (P08246 whole entry): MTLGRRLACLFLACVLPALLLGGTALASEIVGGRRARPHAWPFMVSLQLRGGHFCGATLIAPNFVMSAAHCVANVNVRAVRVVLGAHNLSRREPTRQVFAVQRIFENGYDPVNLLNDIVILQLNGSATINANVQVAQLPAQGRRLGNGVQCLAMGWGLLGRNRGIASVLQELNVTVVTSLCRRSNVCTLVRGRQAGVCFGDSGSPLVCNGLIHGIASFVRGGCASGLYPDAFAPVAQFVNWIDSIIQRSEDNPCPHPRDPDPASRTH
Test: In vitro inhibition constant (Ki) against human leukocyte elastase (HLE-catalyzed hydrolysis of MeO-Suc-Ala-Ala-Pro-Ala-pNA)
pKi: −log10 of the molar value.
Value Kind: pKi

# Molecule, pKi
rows = [
    ("CC(C)C(NC(=O)Cn1c(-c2ccccc2)ccc(NS(=O)(=O)c2ccc(C(=O)NS(=O)(=O)c3ccc(Cl)cc3)cc2)c1=O)C(=O)C(F)(F)F (stereo not drawn)", 8.03),
]

[1] Cc1ccccc1S(=O)(=O)NC(=O)c1ccc(S(=O)(=O)Nc2ccc(-c3ccccc3)n(CC(=O)NC(C(=O)C(F)(F)F)C(C)C)c2=O)cc1 (stereo not drawn)
[2] COc1ccc(S(=O)(=O)N[C@H](C(=O)N2CCC[C@H]2C(=O)NC(C(=O)C(F)(F)F)C(C)C)C(C)C)cc1 (stereo partly drawn)
Could you tell me which of these two has the smaller pKi figure? First: 1 Second: 2 Your answer should be the label of the entry you select.
1
